FYI, the data here is from the supplement of paper PMC10567573.

Exercise: for every item that follows, state its recorded protein stability index.
B1: CLPTM1 (parent)
chain: MNLHVYISEHEHFTDFNATSALFW

variants of: B1; experiment: protein stability index of a GFP-peptide fusion (GPS, HEK-293T) (PSI 1-6); higher = more stable; settings: c terminus: a fixed tail appended;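 further: lentivirally expressed fusions sorted by FACS into six bins by GFP to DsRed ratio, PSI derived from sequencing read proportions per bin multiplied by bin number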
One number for each entry.

I have this variant here, `D15T` , and I need its recorded protein stability index.
3.63

Give its protein stability index value. Item: `E11Y`
3.67

What value of protein stability index has been reported for the following variant? `E9T`
2.48

Please give protein stability index for each item listed below.
1. T14Q
2. S20A

2.62
4.95

Okay, here is my list. What is protein stability index for each of these?
1. F23C
2. W24L
3. E9G
4. H12Y
5. F23L
6. A18T

1: 2.69; 2: 4.15; 3: 4.46; 4: 2.77; 5: 5.95; 6: 1.84
